System: MDA-MB-231 breast
Experiment: NCI-60 one-dose screen, 48 h
Details: 10 µM unless noted
This is part of a sample that, as a whole, favours compounds with a hit. Of some 83,000 tested, about 20% had one in any assay. The source made the active and inactive calls. How the source made its calls: active means growth percent below 10; inactive means the rest.
Outcome codes: 1.0 for active, 0.0 for inactive

# SMILES STR, CAT
rows = [
    ("O=C(OCc1ccc2c(Cl)cc(Cl)c(O)c2n1)N1CCNCC1", 0.0),
    ("CC1(C)NCCC[C@]2(C)[C@H]3C=CC4=C5C[C@](C)(CO)CC[C@]5(C)CC[C@@]4(C)[C@]3(C)CC[C@@H]12", 1.0),
    ("C[C@H]1[C@H](C)CC[C@]2(C(=O)N3CCN(C)CC3)CC[C@]3(C)C(=CC[C@@H]4[C@@]5(C)C/C(=C/c6ccco6)C(=O)C(C)(C)[C@@H]5CC[C@]43C)[C@H]12", 0.0),
    ("Cc1ccc2c(n1)C(=O)C(Cl)=C(Nc1ccc(N3CCN(C)CC3)cc1)C2=O", 1.0),
]

Just for reference, PubChem BioAssay (NCI) is where these values come from.
